Answer each item with its documented IC50.
target: NS3-NS4A protease (Hepatitis C virus genotype 1a); construct: Recombinant E. coli or Baculovirus full-length NS3 was diluted to 3.33 μM with assay buffer; made in house; host or cells: E. coli or baculovirus (BV) system; test: NS3-NS4A protease assay (NS3 inhibition assay, RETS1 substrate), Section B; type: biochemical; details: read-out: NS3-NS4A IC50
Sequence (P27958 1027-1657): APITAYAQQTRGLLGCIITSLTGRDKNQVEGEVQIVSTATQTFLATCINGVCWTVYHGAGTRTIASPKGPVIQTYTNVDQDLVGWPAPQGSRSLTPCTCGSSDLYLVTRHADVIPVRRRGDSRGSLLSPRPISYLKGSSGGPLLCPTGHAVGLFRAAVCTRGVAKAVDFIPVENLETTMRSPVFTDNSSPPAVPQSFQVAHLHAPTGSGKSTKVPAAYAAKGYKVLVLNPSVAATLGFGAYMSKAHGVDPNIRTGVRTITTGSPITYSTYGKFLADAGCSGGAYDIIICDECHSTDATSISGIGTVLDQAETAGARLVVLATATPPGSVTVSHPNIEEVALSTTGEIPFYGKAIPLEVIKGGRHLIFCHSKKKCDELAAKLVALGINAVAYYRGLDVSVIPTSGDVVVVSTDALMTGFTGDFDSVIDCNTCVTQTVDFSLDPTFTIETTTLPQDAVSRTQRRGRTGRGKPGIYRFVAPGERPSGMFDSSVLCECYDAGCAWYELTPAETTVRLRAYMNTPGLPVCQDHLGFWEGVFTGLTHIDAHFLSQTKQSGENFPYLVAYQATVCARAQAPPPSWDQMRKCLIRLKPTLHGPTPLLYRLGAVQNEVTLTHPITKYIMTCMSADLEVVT

// IC50 lookup, key: COc1ccc2c(c1)CN(C(=O)O[C@@H]1C[C@H]3C(=O)N[C@]4(C(=O)NS(=O)(=O)C5CC5)C[C@H]4/C=C\CCCCC[C@H](NC(=O)OC(C)(C)C)C(=O)N3C1)C2 [AR00334314]
< 100 nM

// IC50 lookup, key: CC(OC(=O)N[C@H]1CCCCC/C=C\[C@@H]2C[C@@]2(C(=O)NS(=O)(=O)C2CC2)NC(=O)[C@@H]2C[C@@H](OC(=O)N3CCc4ccccc4C3)CN2C1=O)C(F)(F)F (stereo partly shown) [AR00320581]
< 100 nM

// IC50 lookup, key: CC(C)S(=O)(=O)NC(=O)[C@@]12C[C@H]1/C=C\CCCCC[C@H](NC(=O)OC(C)(C)C)C(=O)N1C[C@H](OC(=O)N3Cc4ccccc4C3)C[C@H]1C(=O)N2 [AR00333801]
< 100 nM

// IC50 lookup, key: CC(C)(C)OC(=O)N[C@H]1CCCCCCC[C@@H]2C[C@@]2(C(=O)O)NC(=O)[C@@H]2C[C@@H](OC(=O)N3CCc4ccccc4C3)CN2C1=O [AR00312023]
< 1000 nM

// IC50 lookup, key: O=C(N[C@H]1CCCCC/C=C\[C@@H]2C[C@@]2(C(=O)NS(=O)(=O)C2CC2)NC(=O)[C@@H]2C[C@@H](OC(=O)N3Cc4ccccc4C3)CN2C1=O)OCCF [AR00320073]
< 100 nM

// IC50 lookup, key: CN(C)c1cccc2c1CCN(C(=O)O[C@@H]1C[C@H]3C(=O)N[C@]4(C(=O)NS(=O)(=O)C5CC5)C[C@H]4/C=C\CCCCC[C@H](NC(=O)OC(C)(C)C)C(=O)N3C1)C2 [AR00320120]
< 100 nM

// IC50 lookup, key: CC(C)(C)OC(=O)N[C@H]1CCCCC/C=C\[C@@H]2C[C@@]2(C(=O)NS(=O)(=O)C2CC2)NC(=O)[C@@H]2C[C@@H](OC(=O)N3CCc4cc(F)ccc4C3)CN2C1=O [AR00301751]
< 100 nM

// IC50 lookup, key: O=C(NC1CCOC1)N[C@H]1CCCCC/C=C\[C@@H]2C[C@@]2(C(=O)O)NC(=O)[C@@H]2C[C@@H](OC(=O)N3CCc4ccccc4C3)CN2C1=O (stereo partly shown) [AR00320221]
< 1000 nM

// IC50 lookup, key: COc1cccc(CC(=O)N[C@H]2CCCCC/C=C\[C@@H]3C[C@@]3(C(=O)NS(=O)(=O)C3CC3)NC(=O)[C@@H]3C[C@@H](OC(=O)N4Cc5cccc(F)c5C4)CN3C2=O)c1 [AR00340178]
< 100 nM

// IC50 lookup, key: CC(C)(C)OC(=O)N[C@H]1CCCCC/C=C\[C@@H]2C[C@@]2(C(=O)NS(=O)(=O)C2CC2)NC(=O)[C@@H]2C[C@@H](OC(=O)N3Cc4ccc(N)cc4C3)CN2C1=O [AR00334286]
< 100 nM
